In this section we review reported Ratio Ki values for a set of compounds.
- Species on record: Homo sapiens
- Run description: Selectivity index, ratio of Ki for human M1 muscarinic receptor to Ki for human M5 muscarinic receptor
A bare number is all that is needed in reply.

Solved cases below.
INSERT INTO measurements (substance_smiles, measured_number) VALUES
  ('CCN1CCC(c2ccccc2)=C(C(=O)OCc2ccc3c(c2)OCO3)C1', 0.5),
  ('COc1ccc(CCOC(=O)C2=C(c3cccc(F)c3)CCN(C)C2)cc1OC', 8.1);

Please give the measured Ratio Ki for this compound: CCN1CCC(c2ccccc2)=C(C(=O)OCCc2cccc(OC)c2)C1 3.1

###

- Target under test: UniProtKB P08172
- Sequence (P08172 whole entry): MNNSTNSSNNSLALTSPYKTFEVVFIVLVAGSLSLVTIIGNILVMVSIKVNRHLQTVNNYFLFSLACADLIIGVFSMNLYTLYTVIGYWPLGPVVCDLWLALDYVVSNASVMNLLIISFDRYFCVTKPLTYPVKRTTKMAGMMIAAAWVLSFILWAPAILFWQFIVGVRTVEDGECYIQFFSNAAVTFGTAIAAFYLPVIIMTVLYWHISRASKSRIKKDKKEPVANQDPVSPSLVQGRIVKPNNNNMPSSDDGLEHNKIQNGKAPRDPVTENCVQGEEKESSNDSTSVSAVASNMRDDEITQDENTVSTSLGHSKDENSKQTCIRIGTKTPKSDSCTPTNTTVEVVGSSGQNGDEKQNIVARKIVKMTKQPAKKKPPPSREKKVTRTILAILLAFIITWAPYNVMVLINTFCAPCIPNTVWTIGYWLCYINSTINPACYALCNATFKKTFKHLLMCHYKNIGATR
- Run description: Displacement of [3H]NMS from human M2 muscarinic receptor expressed in CHO-K1 cells
- Format: cell-based
Readout: Ki

INSERT INTO measurements (substance_smiles, result) VALUES
  ('CCN1CCC(c2ccccc2)=C(C(=O)OCCc2ccc3c(c2)CCO3)C1', '> 100 µM'),
  ('COc1ccc(CCOC(=O)C2=C(c3cccc(F)c3)CCN(C)C2)cc1OC', '> 100 µM');

Turning now to a further record.
Please give the measured Ki for this compound: CN1CCC(c2ccccc2)=C(C(=O)OCCc2cccc3ccccc23)C1 > 100 µM
